- System: U2OS
- protocol notes: Multiplex assay against U2OS
- Format: toxicity, cell-based
- settings: human, 24 h, 10 µM, compound concentration 10 uM, replicate 2
reported endpoint: Population Healthy Nuclei (%)
API: value field is a number in %; no unit string.

Q: Would you mind telling me what Population Healthy Nuclei (%) value was observed for CCN1CCN(c2ccc(Nc3cc(N(C)C(=O)Nc4c(Cl)c(OC)cc(OC)c4Cl)ncn3)cc2)CC1 ?
Ans: 81

Q: Then what about the molecule CCOc1cc(C(=O)N2CCC(N3CCN(C)CC3)CC2)ccc1Nc1ncc2c(n1)N(C1CCCC1)c1ccccc1C(=O)N2C ?
Ans: 30

Q: Then what about the molecule CN1CCN(C(=O)C(C)(C)c2ccc(C(=O)Nc3cn4cc(-c5cc(C(C)(C)C)cc(C(C)(C)C)c5)ccc4n3)cc2)CC1 ?
Ans: 71

Q: Then what about the molecule COCC(=O)NC/C=C/c1ccc2ncnc(Nc3ccc(Oc4ccc(C)nc4)c(C)c3)c2c1 ?
Ans: 54

Q: Then what about the molecule Cl.O=c1c2cccn2c2ccccc2n1CCCN1CCC(c2ccc(Cl)cc2)CC1 ?
Ans: 64

Q: Then what about the molecule CN1CCC(=C2c3ccccc3CC(=O)c3sccc32)CC1.O=C(O)/C=C/C(=O)O [KETOTIFEN FUMARATE] ?
Ans: 66

Q: Then what about the molecule CN1C2CCC1CC(OC(c1ccc(F)cc1)c1ccc(F)cc1)C2.Cl (stereo unspecified) ?
Ans: 64

Q: Then what about the molecule Cl.Oc1ccc2c3c1O[C@H]1c4[nH]c5c(c4C[C@@]4(O)[C@@H](C2)N(CC2CC2)CC[C@]314)C[C@@]1(O)[C@H]2Cc3ccc(O)c4c3[C@@]1(CCN2CC1CC1)[C@H]5O4 ?
Ans: 58

Q: Then what about the molecule CCCn1c(=O)c2[nH]c(-c3cnn(Cc4cccc(C(F)(F)F)c4)c3)nc2n(CC)c1=O ?
Ans: 72

Q: Then what about the molecule CCCS(=O)(=O)c1nc(NC2CC2)cc(-c2ccc3c(ccn3C3CC(C)(C)NC(C)(C)C3)c2)n1 ?
Ans: 10

Q: Then what about the molecule CCn1c(=O)c(-c2ccc(-c3cncs3)cc2Cl)cc2cnc(Nc3ccc(N4CCN(C)CC4)cc3)nc21 ?
Ans: 71

Q: Then what about the molecule CCOC(=O)c1c(C)[nH]c2ccc3c(c12)CN1CCc2cc(OC)ccc2C1O3 (stereo unspecified) ?
Ans: 52

Q: Then what about the molecule NC(=O)c1cccc(-c2cc(Nc3ccc(OC(F)(F)F)cc3)ncn2)c1 ?
Ans: 88

Q: Then what about the molecule COc1cccc2cc(-c3nc([C@H]4CC[C@H](C(=O)O)CC4)n4ncnc(N)c34)[nH]c12 ?
Ans: 84

Q: Then what about the molecule COc1cc2ncnc(Nc3ccc(F)c(Cl)c3)c2cc1NC(=O)/C=C/CN1CCCCC1 [DACOMITINIB ANHYDROUS] ?
Ans: 87

Q: Then what about the molecule Cl.O=C(c1ccc(Nc2nccc(-c3cc4ccccc4s3)n2)cc1)N1CCC(N2CCCC2)CC1 ?
Ans: 16

Values compiled from ChEMBL document CHEMBL4689842.
